FYI, the data here is from ChEMBL document CHEMBL1147446.

tested on: HeLa; assay: Antiviral activities in a cell culture HIV-1 infectivity inhibition assay using HeLa cells plus 50% normal human serum; assay type: functional

{"smiles-str": "CCOc1ccc(Cc2cc(C3CCN(C[C@H]4CN([C@@H](C(=O)O)C(C)(C)C)C[C@@H]4c4cccc(F)c4)CC3)n(CC)n2)cc1F", "tgt": "HeLa", "units-symbol": "nM", "comparison-sign": "=", "IC90": 11}
{"smiles-str": "CCn1nc(Cc2ccc(O)cc2)cc1C1CCN(C[C@H]2CN([C@@H](C(=O)O)C(C)C)C[C@@H]2c2cccc(F)c2)CC1", "tgt": "HeLa", "units-symbol": "nM", "comparison-sign": "=", "IC90": 33}
{"smiles-str": "CC[C@H](C)[C@H](C(=O)O)N1C[C@H](CN2CCC(c3cc(Cc4ccc(C(C)C)cc4)nn3CC)CC2)[C@@H](c2cccc(F)c2)C1", "tgt": "HeLa", "units-symbol": "nM", "comparison-sign": "=", "IC90": 11}
{"smiles-str": "CCCOc1ccc(Cc2cc(C3CCN(C[C@H]4CN([C@@H](C(=O)O)C(C)(C)C)C[C@@H]4c4cccc(F)c4)CC3)n(CC)n2)cc1", "tgt": "HeLa", "units-symbol": "nM", "comparison-sign": "=", "IC90": 300}
{"smiles-str": "CC[C@@H](C)[C@H](C(=O)O)N1C[C@H](CN2CCC(c3cc(Cc4ccc(O)cc4)nn3CC)CC2)[C@@H](c2cccc(F)c2)C1", "tgt": "HeLa", "units-symbol": "nM", "comparison-sign": "=", "IC90": 11}
{"smiles-str": "CCn1nc(Cc2ccccc2F)cc1C1CCN(C[C@H]2CN([C@@H](C(=O)O)C(C)C)C[C@@H]2c2cccc(F)c2)CC1", "tgt": "HeLa", "units-symbol": "nM", "comparison-sign": ">", "IC90": 300}
{"smiles-str": "CCn1nc(Cc2ccc(C)cc2)cc1C1CCN(C[C@H]2CN([C@@H](C(=O)O)C(C)(C)C)C[C@@H]2c2cccc(F)c2)CC1", "tgt": "HeLa", "units-symbol": "nM", "comparison-sign": "=", "IC90": 33}
{"smiles-str": "CCn1nc(Cc2ccc(C(F)(F)F)cc2)cc1C1CCN(C[C@H]2CN([C@@H](C(=O)O)C(C)C)C[C@@H]2c2cccc(F)c2)CC1", "tgt": "HeLa", "units-symbol": "nM", "comparison-sign": "=", "IC90": 100}
